B1: CLCN6 (parent)
chain: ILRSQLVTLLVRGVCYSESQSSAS

- Variants of: B1
- procedure.details: protein stability index of a GFP-peptide fusion (GPS, HEK-293T) (PSI 1-6); higher = more stable;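 note: lentivirally expressed fusions sorted by FACS into six bins by GFP to DsRed ratio, PSI derived from sequencing read proportions per bin multiplied by bin number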
- condition.parameters: c terminus: a fixed tail appended
value.kind: protein stability index

[[record]]
variant_id = "V7D"
value_kind = "protein stability index"
reading = 2.45

[[record]]
variant_id = "I1G"
value_kind = "protein stability index"
reading = 2.2

[[record]]
variant_id = "I1D"
value_kind = "protein stability index"
reading = 3.23

[[record]]
variant_id = "S17N"
value_kind = "protein stability index"
reading = 3.71

[[record]]
variant_id = "V7G"
value_kind = "protein stability index"
reading = 1.75

